All figures here come from patent US9573966B2.

Tested on: HL-60 cells
Assay: Inhibition of HL-60 leukemic cell line proliferation (WST-1)
Assay type: cell-based, human
Conditions: Homo sapiens, 48 h; cytotoxicity on HL-60 cells, two days incubation, WST-1 read-out
property: pIC50
Interpret pIC50 as the negative base-10 log of the concentration measured in mol/L.

Record excerpt, results attached:
N#Cc1ccc(NC(=O)N2CCN(c3nc(N)nc4sc(Cc5ccc(F)cc5)nc34)CC2)cc1 | 5.00
Nc1nc(N2CCN(C(=O)Nc3ccccc3)CC2)c2nc(-c3cccnc3)sc2n1 | 7.19

stdin: What measured pIC50 is associated with COc1cccc(-c2nc3c(N4CCN(C(=O)COc5ccc(Cl)cc5)CC4)nc(N)nc3s2)c1 on HL-60 cells?
stdout: 6.02

----------
Test system: HL-60 cells
Assay: Inhibition of HL-60 leukemic cell line proliferation (WST-1)
Type: cell-based, human
Details: Homo sapiens, 48 h; cytotoxicity on HL-60 cells, two days incubation, WST-1 read-out
property: pIC50
Interpret pIC50 as the negative base-10 log of the concentration measured in mol/L.

Record excerpt, results attached:
Nc1nc(N2CCN(C(=O)COc3ccc(Cl)cc3)CC2)c2nc(C3CC3)[nH]c2n1 | 5.22
Nc1nc(N2CCN(C(=O)COc3ccc(Cl)cc3)CC2)c2nc(-c3ccc(C(F)(F)F)cc3)[nH]c2n1 | 5.06
Cn1c(-c2ccc(F)cc2)nc2c(N3CCN(C(=O)COc4ccc(Cl)cc4)CC3)nc(N)nc21 | 6.00
Nc1nc(N2CCN(C(=O)COc3ccc(Cl)cc3)CC2)c2nc(-c3ccc(Cl)cc3)sc2n1 | 5.92
Nc1nc(N2CCN(C(=O)COc3ccc(Cl)cc3)CC2)c2nc(-c3cccc(Cl)c3)[nH]c2n1 | 5.04

Now let's try a different one.
stdin: GET /values?readout=pIC50&item= N#Cc1ccc(NC(=O)N2CCN(c3nc(N)nc4sc(-c5ccc(F)cc5)nc34)CC2)cc1
stdout: 5.19

----------
Tested on: HL-60 cells
Experiment: Inhibition of HL-60 leukemic cell line proliferation (WST-1)
Assay type: cell-based, human
Details: Homo sapiens, 48 h; cytotoxicity on HL-60 cells, two days incubation, WST-1 read-out
property: pIC50
Interpret pIC50 as the negative base-10 log of the concentration measured in mol/L.

Record excerpt, results attached:
Nc1nc(N2CCN(C(=O)COc3cccc(Cl)c3)CC2)c2nc(-c3ccc(F)cc3)sc2n1 [Example 214] | 5.22
C[S+]([O-])c1nc2c(N3CCN(C(=O)COc4ccc(Cl)cc4)CC3)nc(N)nc2s1 (stereo not shown) [Example 126] | 5.42

Now let's try a different one.
stdin: GET /values?readout=pIC50&item= Nc1nc(N2CCN(C(=O)COc3ccc(Cl)cc3)CC2)c2nc(-c3cccnc3)sc2n1 [Example 121a]
stdout: 6.64

----------
Test system: HL-60 cells
Test: Inhibition of HL-60 leukemic cell line proliferation (WST-1)
Format: cell-based, human
Settings: Homo sapiens, 48 h; cytotoxicity on HL-60 cells, two days incubation, WST-1 read-out
property: pIC50
Interpret pIC50 as the negative base-10 log of the concentration measured in mol/L.

Cc1ccc(NC(=O)N2CCN(c3nc(N)nc4sc(-c5cccnc5)nc34)CC2)cc1 [Example 222] | 7.30

Now let's try a different one.
stdin: GET /values?readout=pIC50&item= Nc1nc(N2CCN(C(=O)COc3ccc(Cl)cc3)CC2)c2nc(-c3ccc(Br)cc3)[nH]c2n1 [Example 391]
stdout: 5.44

----------
# key: entry, value: IC50
Tested on: HSB-2 cells
Assay: Inhibition of HSB-2 leukemic cell line proliferation (WST-1)
Assay type: cell-based, human
Conditions: Homo sapiens, HSB2, 48 h, cytotoxicity on HSB-2 cells, two days incubation, WST-1 read-out

Record excerpt, results attached:
N#Cc1ccc(NC(=O)N2CCN(c3nc(N)nc4sc(-c5ccc(F)cc5)nc34)CC2)cc1 | 4.9 µM
Nc1nc(N2CCN(C(=O)COc3ccc(Cl)cc3)CC2)c2cc(-c3ccccc3)sc2n1 | 13.7 µM
COc1ccc(OCC(=O)N2CCN(c3nc(N)nc4sc(-c5ccccc5)nc34)CC2)cc1 | 0.06 µM
Nc1nc(N2CCN(C(=O)COc3ccc(Cl)cc3)CC2)c2ccsc2n1 | 1.7 µM
COc1ccc(OCC(=O)N2CCN(c3nc(N)nc4sc(CCc5ccc(C)cc5)nc34)CC2)cc1 | 3 µM

stdin: GET /values?readout=IC50&item= Nc1nc(N2CCN(C(=O)COc3cccc(Cl)c3)CC2)c2nc(CCc3ccc(F)cc3)sc2n1
stdout: > 10 µM

stdin: GET /values?readout=IC50&item= O=C(COc1ccc(Cl)cc1)N1CCN(c2ncnc3sc(-c4ccc(F)cc4)nc23)CC1
stdout: 2.06 µM

stdin: GET /values?readout=IC50&item= Nc1nc(N2CCN(C(=O)COc3ccc(Br)cc3)CC2)c2cc(-c3ccccc3)sc2n1
stdout: 9.87 µM

stdin: GET /values?readout=IC50&item= CCC(c1ccc(F)cc1)c1nc2c(N3CCN(C(=O)COc4ccc(Cl)cc4)CC3)nc(N)nc2s1 (stereo not shown)
stdout: > 10 µM

stdin: GET /values?readout=IC50&item= Nc1nc(N2CCN(C(=O)COc3ccc(F)cc3)CC2)c2cc(-c3ccccc3)sc2n1
stdout: 6.38 µM

stdin: GET /values?readout=IC50&item= Nc1nc(N2CCN(C(=O)COc3cccc(Cl)c3)CC2)c2nc(-c3ccc(F)cc3)sc2n1
stdout: 0.73 µM

stdin: GET /values?readout=IC50&item= COc1cccc(CCc2nc3c(N4CCN(C(=O)COc5ccc(Br)cc5)CC4)nc(N)nc3s2)c1
stdout: > 10 µM

----------
System: HSB-2 cells
Assay: Inhibition of HSB-2 leukemic cell line proliferation (WST-1)
Type: cell-based, human
Conditions: Homo sapiens, HSB2, 48 h, cytotoxicity on HSB-2 cells, two days incubation, WST-1 read-out
property: IC50

Record excerpt, results attached:
COC(=O)c1ccc(OCC(=O)N2CCN(c3nc(N)nc4sc(CCc5ccc(F)cc5)nc34)CC2)cc1 | > 10 µM
Nc1nc(N2CCCN(C(=O)COc3ccc(Cl)cc3)CC2)c2nc(-c3ccc(F)cc3)[nH]c2n1 | > 10 µM

stdin: GET /values?readout=IC50&item= Cc1cccc(NC(=O)N2CCN(c3nc(N)nc4sc(-c5ccccc5)cc34)CC2)c1
stdout: 7.61 µM

stdin: GET /values?readout=IC50&item= Cc1cccc(NC(=O)N2CCN(c3nc(N)nc4sc(-c5ccccc5)nc34)CC2)c1
stdout: 0.77 µM

stdin: GET /values?readout=IC50&item= Nc1nc(N2CCN(C(=O)Nc3ccc(Cl)cc3)CC2)c2cc(-c3ccccc3)sc2n1
stdout: > 10 µM

stdin: GET /values?readout=IC50&item= Nc1nc(N2CCN(C(=O)COc3ccc(Cl)cc3)CC2)c2nc(C3CC3)[nH]c2n1
stdout: 4.78 µM

stdin: GET /values?readout=IC50&item= Nc1nc(N2CCN(C(=O)COc3ccc(Cl)cc3)CC2)c2nc(CCCCc3ccc(F)cc3)sc2n1
stdout: 9.79 µM

stdin: GET /values?readout=IC50&item= COc1ccc(CNC(=O)N2CCN(c3nc(N)nc4sc(-c5cccnc5)nc34)CC2)cc1
stdout: 0.75 µM

----------
# key: entry, value: IC50
Tested on: HSB-2 cells
Assay: Inhibition of HSB-2 leukemic cell line proliferation (WST-1)
Type: cell-based, human
Conditions: Homo sapiens, HSB2, 48 h, cytotoxicity on HSB-2 cells, two days incubation, WST-1 read-out
Write the value in µM as a bare number.

Record excerpt, results attached:
C[S+]([O-])c1nc2c(N3CCN(C(=O)COc4ccc(Cl)cc4)CC3)nc(N)nc2s1 (stereo not shown) [Example 126] | 5.47
Nc1nc(N2CCN(C(=O)COc3ccc(Cl)cc3)CC2)c2nc(C3CCCCC3)sc2n1 [Example 120] | 4.87
Cc1cccc(NC(=O)N2CCN(c3nc(N)nc4sc(CCc5ccc(F)cc5)nc34)CC2)c1 [Example 133] | 12.3
Nc1nc(N2CCN(C(=O)COc3ccc(Cl)cc3)CC2)c2nc(-c3ccc(C(F)(F)F)cc3)[nH]c2n1 [Example 394] | 7.37
Nc1nc(N2CCN(C(=O)COc3ccc(Cl)cc3)CC2)c2nc(-c3cccnc3)sc2n1 [Example 121a] | 0.2

stdin: GET /values?readout=IC50&item= Nc1nc(N2CCN(C(=O)COc3ccc(OC(F)(F)F)cc3)CC2)c2nc(-c3cccnc3)sc2n1 [Example 273]
stdout: 0.81

stdin: GET /values?readout=IC50&item= Cc1cccc(NC(=O)N2CCN(c3nc(N)nc4sc(-c5cccnc5)nc34)CC2)c1 [Example 276]
stdout: 0.05

stdin: GET /values?readout=IC50&item= COc1ccc(OCC(=O)N2CCN(c3nc(N)nc4sc(-c5ccccc5)cc34)CC2)cc1 [Example 369]
stdout: 5.87

stdin: GET /values?readout=IC50&item= Nc1nc(N2CCN(C(=O)COc3ccc(Cl)cc3)CC2)c2nc(C3CC3)sc2n1 [Example 119]
stdout: 3.03

stdin: GET /values?readout=IC50&item= Nc1nc(N2CCN(C(=O)COc3ccc(Cl)cc3)CC2)c2nc(CCc3ccc(Br)cc3)sc2n1 [Example 299]
stdout: 3.72
